Tested on: C32
Experiment: Cell panel nuclear dye assay
Assay type: cell-based
Settings: Homo sapiens, 120 h, Melanoma, 5-day incubation

- Item smiles: "NC(=O)c1ncn2c(=O)n(CCOC(F)(F)F)nnc12"
  EC50: "30 to 70 µM"

* * *

System: M059J
Assay: Cell panel nuclear dye assay
Assay type: cell-based
Conditions: Homo sapiens, 120 h, Glioma (glioblastoma), 5-day incubation
Readout name: EC50

- Molecule: "NC(=O)c1ncn2c(=O)n(CCOC(F)(F)F)nnc12 [Compound I-1]"
  Result: "30 to 70 µM"

* * *

System: U-87 MG
Assay: Cell panel nuclear dye assay
Assay type: cell-based
Conditions: Homo sapiens, 120 h, Glioma (glioblastoma), 5-day incubation
pEC50: −log10 of the molar value.

- Item smiles: "NC(=O)c1ncn2c(=O)n(CCOC(F)(F)F)nnc12"
  pEC50: "4.15 to 4.52"

* * *

System: SW620
Assay: Cell panel nuclear dye assay
Type: cell-based
Settings: Homo sapiens, SW-620, 120 h, Colon, 5-day incubation
pIC50: −log10 of the molar value.

- Molecule: "NC(=O)c1ncn2c(=O)n(CCOC(F)(F)F)nnc12 [Compound I-1]"
  pIC50: "3.82 to 4.15"

* * *

System: BFTC-905
Assay: Cell panel nuclear dye assay
Assay type: cell-based
Conditions: Homo sapiens, 120 h, Bladder, 5-day incubation
pIC50: −log10 of the molar value.

- Item smiles: "NC(=O)c1ncn2c(=O)n(CCOC(F)(F)F)nnc12"
  pIC50: "4.15 to 4.52"

* * *

System: SK-N-AS
Test: Cell panel nuclear dye assay
Type: cell-based
Conditions: Homo sapiens, 120 h, Neuroblastoma, 5-day incubation
Readout name: IC50

- Compound: "NC(=O)c1ncn2c(=O)n(CCOC(F)(F)F)nnc12 [Compound I-1]"
  Readout name: "IC50"
  Result: "> 150 µM"

* * *

Test system: KHOS-240S
Experiment: Cell panel nuclear dye assay
Assay type: cell-based
Settings: 120 h, Osteosarcoma, 5-day incubation
pEC50: −log10 of the molar value.
Readout name: pEC50

- Molecule: "NC(=O)c1ncn2c(=O)n(CCOC(F)(F)F)nnc12 [Compound I-1]"
  Result: "< 3.82"

* * *

Tested on: WM-266-4
Assay: Cell panel nuclear dye assay
Assay type: cell-based
Details: Homo sapiens, 120 h, Melanoma, 5-day incubation
pIC50: −log10 of the molar value.
Readout name: pIC50

- Item smiles: "NC(=O)c1ncn2c(=O)n(CCOC(F)(F)F)nnc12"
  Result: "4.15 to 4.52"

* * *

Tested on: LN229 gliobastoma cells MGMT−/MMR+
Assay: Anti-cancer assay, isogenic LN229 cells, nuclei count (Examples 43, 46)
Type: cell-based
Conditions: Homo sapiens, LN-229; LN229 MGMT−/MMR+; 120 hours; read-out: MGMT− MMR+ Activity
# IC50 listing for each entry below

- Item smiles: "O=c1n(CCOC(F)(F)F)nnc2c(-c3ncc(-c4ccccc4)o3)ncn12"
  IC50: "50 to 100 µM"
- Item smiles: "NCCNC(=O)c1ncn2c(=O)n(CCOC(F)(F)F)nnc12"
  IC50: "50 to 100 µM"
- Item smiles: "NC(=O)c1ncn2c(=O)n(CCCOCC(F)(F)F)nnc12"
  IC50: "> 100 µM"
- Item smiles: "Cc1cnc(-c2ncn3c(=O)n(CCOC(F)(F)F)nnc23)o1"
  IC50: "20 to 50 µM"
- Item smiles: "Cc1cnc(-c2ncn3c(=O)n(CCOC(F)(F)F)nnc23)s1"
  IC50: "20 to 50 µM"
- Item smiles: "O=c1n(CCOC(F)(F)F)nnc2c(Cl)ncn12"
  IC50: "< 20 µM"
- Item smiles: "N=C(N)c1ncn2c(=O)n(CCOC(F)(F)F)nnc12"
  IC50: "< 20 µM"
- Item smiles: "NC(=O)c1ncn2c(=O)n(CCOC(F)(F)F)nnc12"
  IC50: "< 20 µM"
- Item smiles: "O=c1n(CCOC(F)(F)F)nnc2c(-c3ccccc3)ncn12"
  IC50: "< 20 µM"
- Item smiles: "CN(C)C(=O)c1ncn2c(=O)n(CCOC(F)(F)F)nnc12"
  IC50: "20 to 50 µM"
- Item smiles: "O=C(Nc1ccccn1)c1ncn2c(=O)n(CCOC(F)(F)F)nnc12"
  IC50: "50 to 100 µM"
- Item smiles: "NC(=O)c1ncn2c(=O)n(COC(C(F)(F)F)C(F)(F)F)nnc12"
  IC50: "> 100 µM"
- Item smiles: "NC(=O)c1ncn2c(=O)n(CCOC(F)F)nnc12"
  IC50: "> 100 µM"
- Item smiles: "O=C(c1ncn2c(=O)n(CCOC(F)(F)F)nnc12)N1CCCC1"
  IC50: "20 to 50 µM"
- Item smiles: "O=c1n(CCOC(F)(F)F)nnc2c(-c3nc4ccccc4o3)ncn12"
  IC50: "20 to 50 µM"
- Item smiles: "[2H]C([2H])(OC(F)(F)F)C([2H])([2H])n1nnc2c(C(N)=O)ncn2c1=O"
  IC50: "20 to 50 µM"
- Item smiles: "CNC(=O)c1ncn2c(=O)n(CCOC(F)(F)F)nnc12"
  IC50: "20 to 50 µM"
- Item smiles: "CN1CCN(C(=O)c2ncn3c(=O)n(CCOC(F)(F)F)nnc23)CC1"
  IC50: "20 to 50 µM"
- Item smiles: "NC(=S)c1ncn2c(=O)n(CCOC(F)(F)F)nnc12"
  IC50: "20 to 50 µM"
- Item smiles: "O=C(NC1CCCC1)c1ncn2c(=O)n(CCOC(F)(F)F)nnc12"
  IC50: "50 to 100 µM"
- Item smiles: "O=c1n(CCOC(F)(F)F)nnc2c(-c3nc4ccccc4[nH]3)ncn12"
  IC50: "< 20 µM"
- Item smiles: "O=C(NC1CC1)c1ncn2c(=O)n(CCOC(F)(F)F)nnc12"
  IC50: "< 20 µM"
